assay: MRT (0 to infinity) in Beagle dog at 0.5 mg/kg, iv by LC-MS/MS analysis
Format: ADME, organism-based, Canis lupus familiaris
measurementContext: in vivo
reportedProperty: MRT inf (h)

1) O=C(O)CNC(=O)c1ncc(C#CCOc2ccc(Cl)cc2)cc1O : 2.27

* * *

assay: Half-life in rat hepatocytes at 100 uM incubated up to 120 mins by LC-MS/MS analysis
Format: ADME, cell-based, Hepatocyte
reportedProperty: half-life at 100 µM (min)

1. O=C(O)CNC(=O)c1ncc(C#CCOc2ccc(Cl)cc2)cc1O [DDO-3055] : 32.3

* * *

assay: AUC (0 to infinity) in Sprague-Dawley rat at 2 mg/kg, ig by LC-MS/MS analysis
Type: ADME, organism-based
Set-up: time infinity, route […], dose 2 mg/kg
measurementContext: in vivo, po
reportedProperty: AUC(0-inf) (ng·h/mL)

1. O=C(O)CNC(=O)c1ncc(C#CCOc2ccc(Cl)cc2)cc1O : 5420

* * *

assay: Clearance in Beagle dog at 0.5 mg/kg, iv by LC-MS/MS analysis
Assay type: ADME, organism-based, Canis lupus familiaris
measurementContext: in vivo
reportedProperty: clearance

1) O=C(O)CNC(=O)c1ncc(C#CCOc2ccc(Cl)cc2)cc1O : 13.2 mL/min/kg

* * *

assay: MRT (0 to infinity) in Beagle dog at 2 mg/kg, ig by LC-MS/MS analysis
Format: ADME, organism-based, Canis lupus familiaris
measurementContext: in vivo, po
reportedProperty: MRT inf (h)

1. O=C(O)CNC(=O)c1ncc(C#CCOc2ccc(Cl)cc2)cc1O : 4.69

* * *

assay: Half-life in rat liver microsome at 1 uM preincubated for 5 mins followed by NADPH addition measured up to 120 mins by LC-MS/MS analysis
Type: ADME
measurementContext: liver microsomes, time <=125 min
reportedProperty: half-life at 1 µM

1) O=C(O)CNC(=O)c1ncc(C#CCOc2ccc(Cl)cc2)cc1O : > 1.12 h

* * *

assay: AUC (0 to infinity) in Sprague-Dawley rat at 1 mg/kg, iv by LC-MS/MS analysis
Format: ADME, organism-based
Design: time infinity, route intravenous, dose 1 mg/kg
measurementContext: in vivo
reportedProperty: AUC(0-inf) (ng·h/mL)

1) O=C(O)CNC(=O)c1ncc(C#CCOc2ccc(Cl)cc2)cc1O : 4860

* * *

assay: Cmax in Beagle dog at 2 mg/kg, ig by LC-MS/MS analysis
Format: ADME, organism-based, Canis lupus familiaris
Parameters: route […], dose 2 mg/kg
measurementContext: in vivo, po
reportedProperty: Cmax

1. O=C(O)CNC(=O)c1ncc(C#CCOc2ccc(Cl)cc2)cc1O [DDO-3055] : 735 ng/mL

* * *

assay: Oral bioavailability in Beagle dog at 2 mg/kg by LC-MS/MS analysis
Assay type: ADME, organism-based, Canis lupus familiaris
measurementContext: in vivo
reportedProperty: bioavailability (%)

1) O=C(O)CNC(=O)c1ncc(C#CCOc2ccc(Cl)cc2)cc1O [DDO-3055] : 54
